# credit: the MegaScale stability set (Tsuboyama et al. 2023)

Listed here: items and their measured folding stability dG.
B1: 5KPH (parent)
chain: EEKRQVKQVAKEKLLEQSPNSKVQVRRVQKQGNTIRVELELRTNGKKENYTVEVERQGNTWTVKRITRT

variants of: B1; experiment: folding stability dG (cDNA display proteolysis); higher = more stable; settings: PBS, room temperature

Mutation key	folding stability dG (kcal/mol)
R65S	4.29
G58T	2.84
K46S	3.73
Y50F	3.74
E38R	3.69
V63A	3.02
S21M	2.75
T62L	4.03
R65Y	3.7
R26H	3.56
R42H	3.91
K11V	4.49
I66D	0.142
N33M	3.74
E53M	3.58
L15W	2.92
N59R	3.33
V9R	3.07
L41M	3.89
E40P	0.357
T51G	2.5
R36K	4.23
